B1: mRNA-splicing (parent)
chain: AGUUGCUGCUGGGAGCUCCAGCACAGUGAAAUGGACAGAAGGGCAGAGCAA

Variants of: B1
Protocol description: exon inclusion enrichment index; higher = more inclusion; WT1 exon 5 minigene, HEK293
Criterion: exon inclusion enrichment index meeting or surpassing 0.6. Met: yes. Not met: no.

Take a look at these entries with their results.
G5A C6G U7G C9G U10G: no
G5C C6G U7C U10C A45G: yes
G5C C6G U7C G8A U10A: no
G5C C6A U7C G8A U10A G26C: no
G5C C6A U7C G8A U10A G46U A47U: no

From here, focus on the item given below.
Challenge: Check this variant for exon inclusion enrichment index at or above 0.6: C6A U7C C9A U10C C24G A25G
Response given: yes
